# Tested on: LPS-induced microglia activation
# procedure text: Image-based assay of LPS-induced microglia activation (HTS and dose response)
# Assay type: cell-based, rat
# conditions used: Rattus norvegicus, Microglia, primary microglia HTS, 10 μM, LPS-stimulated, cell size >800 μm^2 as marker of activation; read-out: LPS % inhibition
Counter-ions that a name gives are not always drawn.
Recorded inhibition at 10 µM values for a group of molecules are listed next.
assay readout: inhibition at 10 µM (%)

CCC(=O)O[C@H]1CC[C@H]2[C@@H]3CCC4=CC(=O)CC[C@]4(C)[C@H]3CC[C@]12C [Testosterone Propionate] = 8
Cc1ccc(C(C)C)c(O)c1 = 20
CC(C)[C@H](N)C(=O)OCC(CO)OCn1cnc2c(=O)nc(N)[nH]c21 (stereo partly shown) = 14
[H]/N=C(/N)N[C@H]1[C@H](O)[C@@H](O)[C@H](O[C@@H]2O[C@@H](C)[C@](O)(C=O)[C@H]2O[C@@H]2O[C@@H](CO)[C@H](O)[C@@H](O)[C@@H]2NC)[C@@H](N/C(N)=N\[H])[C@@H]1O [Streptomycin Sulfate] = 13
CCCCCCCCCCCCCCCC[N+](C)(C)CCN(Cc1ccc(OC)cc1)c1ncccn1 [Thonzonium Bromide] = 19
[H]/N=C(/N)NS(=O)(=O)c1ccc(N)cc1 = 12
Cc1ccc(/C(=C\CN2CCCC2)c2ccccn2)cc1 = 23
Cc1c(Cl)cccc1Nc1ccccc1C(=O)O = 36
O=c1cc[nH]c(=O)[nH]1 = 11
Nc1ccc(S(=O)(=O)Nc2nccs2)cc1 = 9
COc1cnc(NS(=O)(=O)c2ccc(N)cc2)nc1 = 11
O=c1[nH]c(=O)n([C@H]2C[C@H](O)[C@@H](CO)O2)cc1C(F)(F)F = 16
CC[C@]12CCCN3CCc4c(n(c5ccccc45)[C@@](O)(C(=O)OC)C1)[C@@H]32 = 20
Cc1ccnc(NS(=O)(=O)c2ccc(N)cc2)n1 = 12
CN1C(=O)OC(C)(C)C1=O = 14
COc1cc(NS(=O)(=O)c2ccc(N)cc2)ncn1 = 19
Nc1ccc(S(=O)(=O)Nc2ccnn2-c2ccccc2)cc1 = 14
NS(=O)(=O)c1cc2c(cc1Cl)NC(C(Cl)Cl)NS2(=O)=O (stereo not shown) [Trichlormethiazide] = 13
CCCCCC(C)N (stereo not shown) [Tuaminoheptane Sulfate] = 19

----------
The following compounds have recorded Fibrin % cell toxicity on primary rat microglia.
Structures can show the parent of a compound that is named as a salt.
assay readout: Fibrin % cell toxicity (%)

Nc1ncn([C@@H]2O[C@H](CO)[C@@H](O)[C@H]2O)c(=O)n1 [5-azacytidine, Azacitidine] = 1
CCCCc1nc(Cl)c(CO)n1Cc1ccc(-c2ccccc2-c2nnn[nH]2)cc1 [Losartan, Losartan Potassium] = 1
CCCCC1C(=O)N(c2ccccc2)N(c2ccc(O)cc2)C1=O (centres unmarked) [Oxyphenbutazone] = 1
CN(C)CCCN1c2ccccc2Sc2ccc(Cl)cc21.Cl = 2
OCC(S)CS (centres unmarked) [Dimercaptopropanol, Dimercaprol] = 1
[O-][n+]1ccccc1[S-].[O-][n+]1ccccc1[S-].[Zn+2] [Pyrithione Zinc] = 86
C[C@H]1O[C@@H](n2cc(F)c(=O)[nH]c2=O)[C@H](O)[C@@H]1O [5-fluoro-5′-deoxyuridine, Doxifluridine] = 1
C[C@@H]1C[C@H]2[C@@H]3C[C@H](F)C4=CC(=O)C=C[C@]4(C)[C@@]3(F)[C@@H](O)C[C@]2(C)[C@@]1(O)C(=O)COC(=O)C(C)(C)C [Flumethazone pivalate, reference compound] = 1
CCOc1ccccc1OC(c1ccccc1)C1CNCCO1.CS(=O)(=O)O (centres unmarked) [Reboxetine Mesylate] = 1
O=C([O-])C[C@H](O)C[C@H](O)/C=C/c1c(C2CC2)nc2ccccc2c1-c1ccc(F)cc1.O=C([O-])C[C@H](O)C[C@H](O)/C=C/c1c(C2CC2)nc2ccccc2c1-c1ccc(F)cc1.[Ca+2] [Pitavastatin calcium, reference compound] = 1
CC[C@@]1(O)C(=O)OCc2c1cc1n(c2=O)Cc2cc3c(CN(C)C)c(O)ccc3nc2-1 [Topotecan, Topotecan Hydrochloride] = 63
